- System: YAPC (Pancreatic Carcinoma)
- protocol: Bliss excess, mean over the matrix (fraction); higher = more synergy
measurement-label: Bliss excess
A bare number is all that is needed in reply.

{"compound": "COc1cccc(OCCCN)c1-c1cc(Nc2cnc(C#N)cn2)n[nH]1 [Prexasertib] + Cc1cc2ncnn2cc1Nc1ncc2c(n1)n(C1CCOCC1)c(=O)n2C [AZD7648] (first compound max 1 µM, 7x7, partner max 10 µM)", "measurement-label": "Bliss excess", "test-result": -0.0172}
{"compound": "CC(=O)Nc1cccc(-n2c(=O)n(C3CC3)c(=O)c3c(Nc4ccc(I)cc4F)n(C)c(=O)c(C)c32)c1 [Trametinib] + Cc1nc(-c2cn3c(n2)-c2ccc(-c4cnn(C(C)(C)C(N)=O)c4)cc2OCC3)n(C(C)C)n1 [Taselisib] (first compound max 1 µM, 7x7, partner max 10 µM)", "measurement-label": "Bliss excess", "test-result": 0.246}
{"compound": "Cc1c2c(nn1C)CSCc1cc(n(C)n1)CSc1cc(c3ccccc3c1)OCCCc1c(C(=O)O)n(C)c3c-2c(Cl)ccc13 [AZD5991] + Cc1cc2ncnn2cc1Nc1ncc2c(n1)n(C1CCOCC1)c(=O)n2C [AZD7648] (first compound max 1 µM, 7x7, partner max 10 µM)", "measurement-label": "Bliss excess", "test-result": 0.0003}

We next turn to a different compound, shown below.
Exercise: Report Bliss excess for N#Cc1cnc(Nc2cc(NC[C@H]3CNCCO3)c(C(F)(F)F)cn2)cn1 [SRA737] + CCc1c2c(nc3ccc(O)cc13)-c1cc3c(c(=O)n1C2)COC(=O)[C@]3(O)CC [SN-38] (first compound max 10 µM, 7x7, partner max 0.3 µM) please.
Solution: -0.041

* * *

- Test system: CAL-33 (Oral Cavity Carcinoma)
- protocol: Bliss excess, mean over the matrix (fraction); higher = more synergy
measurement-label: Bliss excess

{"compound": "C[C@@H](c1ccc2nccn2c1)n1nnc2ncc(-c3cnn(C)c3)nc21 [Savolitinib] + CC1(C)CCC(CN2CCN(c3ccc(C(=O)NS(=O)(=O)c4ccc(NCC5CCOCC5)c([N+](=O)[O-])c4)c(Oc4cnc5[nH]ccc5c4)c3)CC2)=C(c2ccc(Cl)cc2)C1 [Venetoclax] (first compound max 1 µM, 7x7, partner max 1 µM)", "Bliss excess": -0.0211}

We next turn to a different compound, shown below.
Exercise: What reported Bliss excess corresponds to CN(CCO)CC[C@H](CSc1ccccc1)Nc1ccc(S(=O)(=O)NC(=O)c2ccc(N3CCC([C@@H](O)c4ccccc4-c4ccc(Cl)cc4)CC3)cc2)cc1S(=O)(=O)C(F)(F)F [AZD4320] + C[C@@H](Nc1cc(F)cc(F)c1)c1cc(C(=O)N(C)C)cc2c(=O)cc(N3CCOCC3)oc12 [AZD8186] (first compound max 1 µM, 7x7, partner max 3 µM) on CAL-33 (Oral Cavity Carcinoma)?
Solution: -0.0039

* * *

- Test system: LCLC-97TM1 (Non-Small Cell Lung Carcinoma)
- protocol: combination Emax (second highest fraction inhibited in the dose matrix, 72 h); higher = more inhibition; extreme values may be limits of the assay
measurement-label: combination Emax
A bare number is all that is needed in reply.

Study these solved cases before continuing.
{"molecule": "CN(C)CCCOc1ccc(-c2ccc3ncc4c(c3c2)n(C2CCOCC2)c(=O)n4C)cn1 [AZD0156] + C[C@@H]1COCCN1C2=NC(=NC(=C2)C3(CC3)[S@](=N)(=O)C)C4=C5C=CNC5=NC=C4 [AZD6738] (first compound max 1 µM, 7x7, partner max 10 µM)", "test-result": 0.88}
{"molecule": "CN(CCO)CC[C@H](CSc1ccccc1)Nc1ccc(S(=O)(=O)NC(=O)c2ccc(N3CCC([C@@H](O)c4ccccc4-c4ccc(Cl)cc4)CC3)cc2)cc1S(=O)(=O)C(F)(F)F [AZD4320] + C[C@@H](Nc1cc(F)cc(F)c1)c1cc(C(=O)N(C)C)cc2c(=O)cc(N3CCOCC3)oc12 [AZD8186] (first compound max 1 µM, 7x7, partner max 3 µM)", "test-result": 0.343}

We next turn to a different molecule, shown below.
Exercise: Report combination Emax for CC1(C)CCC(CN2CCN(c3ccc(C(=O)NS(=O)(=O)c4ccc(NCC5CCOCC5)c([N+](=O)[O-])c4)c(Oc4cnc5[nH]ccc5c4)c3)CC2)=C(c2ccc(Cl)cc2)C1 [Venetoclax] + Cn1cnc2c(F)c(Nc3ccc(Br)cc3Cl)c(C(=O)NOCCO)cc21 [Selumetinib] (first compound max 1 µM, 7x7, partner max 3 µM) please.
Solution: 0.458
